experiment_description: Permeability across apical to basolateral side of MDCK cells
Assay type: ADME, cell-based, Canis lupus familiaris
test_parameters: dog, read-out: permeability
measurement_label: Papp A→B (×10⁻⁶ cm/s)

(I) CNc1nccc(N2CC[C@H](NC(=O)Nc3ccc(CN4CCN(C)CC4)c(C(F)(F)F)c3)C2)n1
(II) CCN1CCN(Cc2ccc(NC(=O)N[C@H]3CCN(c4ccnc(NC)n4)C3)cc2C(F)(F)F)CC1
Kindly compare I with II and tell me which has the lower Papp A→B figure. Indicate your choice by writing its label.
II

====

experiment_description: Permeability across apical to basolateral side of MDCK cells
Type: ADME, cell-based, Canis lupus familiaris
test_parameters: dog, read-out: permeability
measurement_label: Papp A→B (×10⁻⁶ cm/s)

>>> observed_measurement("CNc1nccc(N2CC[C@H](NC(=O)Nc3ccc(Cl)c(C(F)(F)F)c3)C2)n1")
3.9

(A) CNc1nccc(N2CC[C@H](NC(=O)Nc3ccc(C)c(Cl)c3)C2)n1
(B) CNc1nccc(N2CC[C@H](NC(=O)Nc3ccc(CN4CCOCC4)c(C(F)(F)F)c3)C2)n1
Kindly compare A with B and tell me which has the lower Papp A→B figure. Indicate your choice by writing its label.
A
(A: 3.9 ×10⁻⁶ cm/s, B: 12.4 ×10⁻⁶ cm/s)
